# targetOrTestSystem: Recombinant Cx43CT (carboxyl terminal domain of connexin43, sequence 255-382 of rCx43 preceded by GPLG) (rat, UniProt P08050)
# Sequence (P08050 other isoform, or with tags, fused parts or gaps limits assumed): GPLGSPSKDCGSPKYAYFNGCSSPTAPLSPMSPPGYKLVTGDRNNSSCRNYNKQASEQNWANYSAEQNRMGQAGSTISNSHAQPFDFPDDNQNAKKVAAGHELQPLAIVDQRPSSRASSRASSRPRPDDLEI
# procedureText: SPR, Cx43CT immobilised, peptide at 100 uM
// NB: equality with 80 arbitrary units counts as f; only SPR respons at 100 uM strictly below is t

>>> df
                                     binder  qualitativelabel
0         Ac-RRNYVPRRNY-NH2 [Compound 2512]                 t
1        Ac-RRNYGGGRRNY-NH2 [Compound 2509]                 t
2        Ac-RRNYSHSRRNY-NH2 [Compound 2507]                 f
3       Ac-RRNYAVPFRRNY-NH2 [Compound 2511]                 f
4  Ac-RRNYSAVPFYSHSRRNY-NH2 [Compound 2506]                 f
5  Ac-RRNYGGGSAVPFYRRNY-NH2 [Compound 2508]                 f
6           Ac-RRNYRRNY-NH2 [Compound 2497]                 f
7  Ac-RRNYGGSAVPFYSHRRNY-NH2 [Compound 2510]                 f
8  Ac-YNRRGGGSAVPFYSHSYNRR-NH2 [Compound 2496]                 f
